src = ChEMBL document CHEMBL4418308

Target: UniProt Q8N884
Sequence (Q8N884 whole entry): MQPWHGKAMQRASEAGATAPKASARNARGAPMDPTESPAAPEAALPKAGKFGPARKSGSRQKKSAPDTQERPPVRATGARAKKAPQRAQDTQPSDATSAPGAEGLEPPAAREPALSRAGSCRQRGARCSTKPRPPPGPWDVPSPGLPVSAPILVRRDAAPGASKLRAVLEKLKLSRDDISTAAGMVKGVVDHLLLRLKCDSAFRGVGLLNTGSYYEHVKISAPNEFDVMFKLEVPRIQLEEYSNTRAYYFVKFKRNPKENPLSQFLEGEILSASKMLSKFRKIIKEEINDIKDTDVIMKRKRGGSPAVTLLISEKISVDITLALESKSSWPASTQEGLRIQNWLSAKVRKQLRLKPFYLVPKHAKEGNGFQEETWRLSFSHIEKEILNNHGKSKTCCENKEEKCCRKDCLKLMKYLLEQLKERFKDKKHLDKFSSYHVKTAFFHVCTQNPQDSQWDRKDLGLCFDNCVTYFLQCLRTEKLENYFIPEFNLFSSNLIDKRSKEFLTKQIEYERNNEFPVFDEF
Experiment: Inhibition of recombinant His6-SUMO tagged human CGAS expressed in Escherichia coli BL21/pLys cells incubated for 20 mins by Kinase Glo chemiluminescence assay
pIC50: −log10 of the molar value.
metric: pIC50

Consider the worked cases shown below.
* CN1C(=O)S/C(=C\c2cc(OCc3cncnc3O)c(O)cc2Br)C1=O | ≥ 6.30
* CN1C(=O)S/C(=C\c2cc(OCc3cnc(NCc4ccccn4)nc3)c(O)c(F)c2Br)C1=O | ≤ 5.00
* O=C1/C(=C/c2cc(OCc3cncnc3)c(O)cc2Br)Sc2ncccc21 | ≥ 6.30
* CN1C(=O)S/C(=C\c2cc(OCc3cnc(N)nc3)c(O)c(F)c2Br)C1=O | ≥ 6.30
* CN1C(=O)S/C(=C\c2cc(O)c(O)cc2Br)C1=O | ≤ 5.00
* CN1C(=O)S/C(=C\c2cc(Oc3cccc4cnccc34)c(O)cc2Br)C1=O | ≤ 5.00
* C[S+]([O-])c1ncc(COc2cc(/C=C3\Sc4ncccc4C3=O)c(Br)c(F)c2O)cn1 (stereo not given) | 5.00 to 6.30
* CN1C(=O)S/C(=C\c2cc(OCc3ccccn3)c(O)cc2Br)C1=O | ≤ 5.00
* CNc1ncc(COc2cc(/C=C3\SC(=O)N(C)C3=O)c(Br)cc2O)cn1 | ≥ 6.30

Task: Please give the measured pIC50 for this compound: `Nc1ncc(COc2cc(/C=C3\Sc4ncccc4C3=O)c(Br)cc2O)cn1`
Output: ≥ 6.30
